Data credit: ChEMBL document CHEMBL1201862

# System: SNB-78
# Test Protocol: NCI tumour cell line growth inhibition, 48 h
The source made the active and inactive calls. No stated cut-off is given here; in the data, active = GI50 up to about 1.1 µM and inactive = higher.
Possible outcomes: label 1 (active), label 0 (inactive)

> print(dat)
                                    compound  class.assignment
 1           CC(=O)O/N=C(Cl)/C(Cl)=N/OC(C)=O           label 0
 2  COc1cc2c(cc1OC)C1(c3ccc(Cl)cc3)ON=C(c3ccccc3)N1CS2 (configuration not stated)           label 0
 3  Cc1cc(Br)cc(C)c1NC(=O)C(=O)C(C(=O)c1ccc(Cl)c(Cl)c1)C1OC(=O)c2ccccc21 (configuration not stated)           label 0
 4    O=C(c1cc2ccccc2o1)N(Cc1ccccc1)c1ccccc1           label 0
 5  CC(=O)CCCCCCCCCCCC[C@@H]1CC[C@H](C)[C@H](O)N1           label 0
 6  O=C1C(Br)=CC2(C=C1Br)CCNC1=C2C2=NCCc3c[nH]c(c32)C1=O           label 1
 7  CCC1(O)CC(c2ccccc2)N(C)C(c2ccccc2)C1 (configuration not stated)           label 0
 8  O=C1CCC(Cl)=CC2CCCN12 (configuration not stated)           label 0
 9  N#CC1(C#N)C=CC(=C2OCC3CCCN23)C=C1 (configuration not stated)           label 0
10  CN1C(c2ccccc2)CC(=NO)CC1c1ccccc1 (configuration not stated)           label 0
11  CCOC(=O)C1C(=O)CC(=O)C2CCCCC21 (configuration not stated)           label 0
12  CCc1cccc(C(C)CC)c1NC(=O)CC1C(=O)Nc2ccccc2S1(=O)=O (configuration not stated)           label 0

* * *

# Test system: RPMI-8226
# Test Protocol: NCI tumour cell line growth inhibition, 48 h
The source made the active and inactive calls. No stated cut-off is given here; in the data, active = GI50 up to about 1.1 µM and inactive = higher.
Each item that follows carries a reported GI50.
Readout Label: GI50

> print(dat)
                                    compound  test.target  readout.label                result
 1  COC(=O)[C@@H](O)[C@](O)(CCC(C)C)C(=O)O[C@@H]1C(OC)=C[C@]23CCCN2CCc2cc4c(cc2[C@H]13)OCO4    RPMI-8226           GI50    1.34 µM (inactive)
 2  Cc1cc(Br)cc(C)c1NC(=O)C(=O)C(C(=O)c1ccc(Cl)c(Cl)c1)C1OC(=O)c2ccccc21 (stereo unspecified)    RPMI-8226           GI50    42.2 µM (inactive)
 3  COc1ccc(-n2c(=O)c3nc(S)[nH]c3n(-c3ccc(OC)cc3)c2=S)cc1    RPMI-8226           GI50   > 100 µM (inactive)
 4  COc1ccc(C(c2ccc(OC)cc2)N2C(=O)CCC2C(=O)O)cc1 (stereo unspecified)    RPMI-8226           GI50   > 100 µM (inactive)
 5           ClCCN1CCO/C1=N/c1ccc2c(c1)CCCC2    RPMI-8226           GI50    4.76 µM (inactive)
 6                 CC1(C)Oc2ccc(Cl)cc2C12CC2    RPMI-8226           GI50    16.1 µM (inactive)
 7  CCCCNC1=C(C(=O)OCC)/C(=N/NC(=O)c2ccccc2O)CO1    RPMI-8226           GI50    86.7 µM (inactive)
 8  CCCCN(CCCC)C(=C(C(Cl)=C(Cl)Cl)[N+](=O)[O-])N(CCCC)CCCC    RPMI-8226           GI50    18.7 µM (inactive)
 9  CN(C(=O)C12C3C4C1C1C2C3C41C#N)C(C)(C)C (stereo unspecified)    RPMI-8226           GI50   > 100 µM (inactive)
10  COc1ccc2c(c1)C/C(=C\c1ccc(O)c(OC)c1)C2=O    RPMI-8226           GI50   > 100 µM (inactive)
11  O=C1C=C/C(=N\c2ccc3c(c2)C(Br)c2ccccc2-3)O1 (stereo unspecified)    RPMI-8226           GI50    68.2 µM (inactive)
12            [N-]=[N+]=CC(=O)OC1Cc2ccccc2C1    RPMI-8226           GI50   > 100 µM (inactive)
13  COc1cc(C(c2c(O)c3ccccc3oc2=O)c2c(O)c3ccccc3oc2=O)ccc1O    RPMI-8226           GI50    34.6 µM (inactive)
14        CN(C)S(=O)(=O)c1nc(Cl)c2nc[nH]c2n1    RPMI-8226           GI50   > 100 µM (inactive)
15       CC(=O)/C(=C\NC(N)=S)C(=O)Nc1ccccc1C    RPMI-8226           GI50   > 100 µM (inactive)
16  Cc1ccc(S(=O)(=O)NC(=O)Nc2ccc(C(=O)O)c(O)c2)cc1    RPMI-8226           GI50   > 100 µM (inactive)
17  C=C1C(=O)O[C@H]2C[C@@H]1[C@@H](O)[C@H](O)[C@@H](C)CCCC(C)=CCC[C@@]2(C)O    RPMI-8226           GI50    5.05 µM (inactive)
18  O=C(C[n+]1ccccc1)NNC(=O)/C(=C/c1ccc2c(c1)OCO2)NC(=O)c1ccccc1    RPMI-8226           GI50    24.5 µM (inactive)
19  O=c1ccn(C2OC(CN(O)CCC3C(O)C(CO)OC3n3ccc(=O)[nH]c3=O)C(O)C2O)c(=O)[nH]1 (stereo unspecified)    RPMI-8226           GI50   > 100 µM (inactive)
20  O=C(Nc1ccc([N+](=O)[O-])cc1)C1C(=O)C(=O)N(c2ccc([N+](=O)[O-])cc2)C1=O (stereo unspecified)    RPMI-8226           GI50    46.5 µM (inactive)
21          CN1CCCNCCN(CCc2ccccn2)CCCN(C)CC1    RPMI-8226           GI50  > 52.8 µM (inactive)

* * *

# Tested on: HOP-18
# Test Protocol: NCI tumour cell line growth inhibition, 48 h
Active and inactive are the calls of the source. No stated cut-off is given here; in the data, active = GI50 up to about 1.1 µM and inactive = higher.
Readout Label: GI50

> print(dat)
                                   compound  readout.label               result
1  CC1OC(n2ccc(=O)[nH]c2=O)C=C(OC(=O)c2ccccc2)C1=O (centres undefined)           GI50   38.4 µM (inactive)
2  CSCSCC(CO)NC(=O)/C=C\c1c(C)[nH]c(=O)[nH]c1=O (centres undefined)           GI50   46.1 µM (inactive)
3  Nn1c(S)nnc1N/N=C1/C(=O)Nc2c(Cl)cc(Cl)cc21           GI50  > 100 µM (inactive)
4  N#CC1(C#N)C=CC(=C2OCC3CCCN23)C=C1 (centres undefined)           GI50  > 100 µM (inactive)

* * *

# Tested on: Malme-3M
# Test Protocol: NCI tumour cell line growth inhibition, 48 h
Activity calls are given as the source filed them. Rule as the data show it: active = GI50 up to about 1.1 µM and inactive = higher.
Readout Label: GI50

Compound	Readout Label	Result
C1=CC(=[N+]2N=C(c3ccccc3)CC2c2ccccc2)C=CC1=C1SC(c2ccccc2)(c2ccccc2)c2ccccc21.[O-][Cl+3]([O-])([O-])[O-] (stereo not given)	GI50	> 100 µM (inactive)
C=C(C)CCC(=O)[C@](C)(O)[C@H]1[C@H](O)C[C@@]2(C)[C@@H]3CCc4c(cc(OC5OC(CO)C(O)C(O)C5O)c(O)c4C)C3(C)C(=O)C[C@]12C (stereo not given in full)	GI50	> 100 µM (inactive)
COc1cc(OC)c2c(=O)cc(-c3ccc(OC)c(OC)c3OC)oc2c1	GI50	> 100 µM (inactive)
O=C(O)CSc1cc(-c2ccccc2)nc2ccccc12	GI50	22.8 µM (inactive)
O=C1C=C/C(=N\c2ccc3c(c2)C(Br)c2ccccc2-3)O1 (stereo not given)	GI50	> 100 µM (inactive)
N#CC1(C#N)C=CC(=C2OCC3CCCN23)C=C1 (stereo not given)	GI50	> 100 µM (inactive)
Cc1cccc2c1CC1(C2)Cc2c(C)cccc2C1=O (stereo not given)	GI50	22.7 µM (inactive)
CC(C)=CCC[C@@H](C)C1=C(O)C(=O)C(C)=C(c2c(I)c(=O)n(C)c(=O)n2C)C1=O	GI50	> 100 µM (inactive)
C/N=c1\sc2c(n1C)C(=O)c1ccccc1C2=O	GI50	0.331 µM (active)
COC(=O)c1cc2c(c3c1CC(Cc1ccccc1)C3=O)CCC2 (stereo not given)	GI50	54.1 µM (inactive)
